Tested on: Cryptococcus neoformans
Experimental Details: Antifungal activity against Cryptococcus neoformans H99 after 48 hrs by EUCAST-based microdilution assay
Assay type: functional, organism-based
Condition: var grubii H99 
Property: IC50 (µg/mL)
Give the value, in units of µg/mL, as a plain number.

Solved entries (count: 8):
{"Compound": "CCC[C@@H]1/C=C(\\C)C[C@H](C)C[C@H](OC)[C@H]2O[C@@](O)(C(=O)C(=O)N3CCCC[C@H]3C(=O)O[C@H](/C(C)=C/[C@@H]3CC[C@@H](O)[C@H](O)C3)[C@H](C)[C@@H](O)CC1=O)[C@H](C)C[C@@H]2OC", "Target Desc": "Cryptococcus neoformans", "Unit Annotation": "µg/mL", "IC50": 0.033}
{"Compound": "CO[C@H]1C[C@@H](C)C/C(C)=C/[C@@H](C)C(=O)C[C@H](O)[C@@H](C)[C@@H](/C(C)=C/[C@@H]2CC[C@@H](O)[C@H](O)C2)OC(=O)[C@@H]2CCCCN2C(=O)C[C@]2(O)O[C@H]1[C@@H](OC)C[C@H]2C", "Target Desc": "Cryptococcus neoformans", "Unit Annotation": "µg/mL", "IC50": 54.5}
{"Compound": "CC[C@@H]1/C=C(\\C)C[C@H](C)C[C@H](OC)[C@H]2O[C@@](O)(C(=O)C(=O)N3CCCC[C@H]3C(=O)O[C@H](/C(C)=C/[C@@H]3CC[C@@H](O)[C@H](O)C3)[C@H](C)[C@@H](O)CC1=O)[C@H](C)C[C@@H]2OC", "Target Desc": "Cryptococcus neoformans", "Unit Annotation": "µg/mL", "IC50": 0.027}
{"Compound": "CC[C@@H]1/C=C(\\C)C[C@H](C)C[C@H](OC)[C@H]2O[C@@](O)(CC(=O)N3CCCC[C@H]3C(=O)O[C@H](/C(C)=C/[C@@H]3CC[C@@H](O)[C@H](O)C3)[C@H](C)[C@@H](O)CC1=O)[C@H](C)C[C@@H]2OC", "Target Desc": "Cryptococcus neoformans", "Unit Annotation": "µg/mL", "IC50": 3.3}
{"Compound": "C=CC[C@@H]1/C=C(\\C)C[C@H](C)C[C@H](OC)[C@H]2O[C@@](O)(CC(=O)N3CCC[C@H]3C(=O)O[C@H](/C(C)=C/[C@@H]3CC[C@@H](O)[C@H](O)C3)[C@H](C)[C@@H](O)CC1=O)[C@H](C)C[C@@H]2OC", "Target Desc": "Cryptococcus neoformans", "Unit Annotation": "µg/mL", "IC50": 221}
{"Compound": "CCC[C@@H]1/C=C(\\C)C[C@H](C)C[C@H](OC)[C@H]2O[C@@](O)(CC(=O)N3CCCC[C@H]3C(=O)O[C@H](/C(C)=C/[C@@H]3CC[C@@H](O)[C@H](OC)C3)[C@H](C)[C@@H](O)CC1=O)[C@H](C)C[C@@H]2OC", "Target Desc": "Cryptococcus neoformans", "Unit Annotation": "µg/mL", "IC50": 0.151}
{"Compound": "CC[C@@H]1/C=C(\\C)C[C@H](C)C[C@H](OC)[C@H]2O[C@@](O)(CC(=O)N3CCCC[C@H]3C(=O)O[C@H](/C(C)=C/[C@@H]3CC[C@@H](O)[C@H](OC)C3)[C@H](C)[C@@H](O)CC1=O)[C@H](C)C[C@@H]2OC", "Target Desc": "Cryptococcus neoformans", "Unit Annotation": "µg/mL", "IC50": 0.355}
{"Compound": "CO[C@H]1C[C@@H](C)C/C(C)=C/[C@@H](C)C(=O)C[C@H](O)[C@@H](C)[C@@H](/C(C)=C/[C@@H]2CC[C@@H](O)[C@H](OC)C2)OC(=O)[C@@H]2CCCCN2C(=O)C[C@]2(O)O[C@H]1[C@@H](OC)C[C@H]2C", "Target Desc": "Cryptococcus neoformans", "Unit Annotation": "µg/mL", "IC50": 2.47}

Reported IC50 ( "CCC[C@@H]1/C=C(\C)C[C@H](C)C[C@H](OC)[C@H]2O[C@@](O)(CC(=O)N3CCCC[C@H]3C(=O)O[C@H](/C(C)=C/[C@@H]3CC[C@@H](O)[C@H](O)C3)[C@H](C)[C@@H](O)CC1=O)[C@H](C)C[C@@H]2OC" ) = 8.85
